Test system: Human immunodeficiency virus 1
Assay: Antiviral activity against HIV1 by cell based MTT assay
Type: functional, organism-based
PARAMETER_MEASURED: pIC50
Answers are plain numbers, as −log10 of the molar value.

Which pIC50 is reported for this molecule? `COc1ccc(S(=O)(=O)N(CC(C)C)C[C@@H](O)[C@H](Cc2ccccc2)NC(=O)O[C@H]2CO[C@H]3OC[C@H](OC)[C@H]32)cc1`
8.62

----------
Tested on: Human immunodeficiency virus 1
Assay: Antiviral activity against HIV1 LAI infected in human MT2 cells by MTT assay
Assay type: functional, organism-based
Conditions: Human immunodeficiency virus 1, LAI
PARAMETER_MEASURED: pEC50
Numbers only, as −log10 of the molar value.

Which pEC50 is reported for this molecule? `CC(C)CN(C[C@@H](O)[C@H](Cc1ccccc1)NC(=O)O[C@H]1CO[C@H]2OCC(F)(F)[C@H]21)S(=O)(=O)c1ccc(N)cc1`
8.52
